Cited source: PubChem BioAssay AID504332

biological target: Histone-lysine N-methyltransferase EHMT2 (Homo sapiens) (UniProt Q96KQ7); experiment: qHTS Assay for Inhibitors of Histone Lysine Methyltransferase G9a; conditions: G9a H3K9 monomethylation, AlphaScreen, 2 h; series mostly up to 59 µM; note: nearly all actives have a fitted effect of over 75% in size
Sequence (Q96KQ7 913-1193 limits assumed): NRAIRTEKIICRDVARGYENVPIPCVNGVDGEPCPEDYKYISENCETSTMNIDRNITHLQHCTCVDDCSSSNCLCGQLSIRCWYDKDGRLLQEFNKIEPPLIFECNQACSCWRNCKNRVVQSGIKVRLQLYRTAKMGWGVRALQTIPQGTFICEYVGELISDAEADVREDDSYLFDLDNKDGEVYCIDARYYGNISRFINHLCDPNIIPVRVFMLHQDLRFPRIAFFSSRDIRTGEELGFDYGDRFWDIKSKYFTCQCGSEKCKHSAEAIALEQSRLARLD
Screen size: about 350,000 compounds; about 31,000 (8.9%) were called active. Another 15% or so got no clear call; they are omitted. Calls come from the whole dose curve; as a rule, active = well fitted inhibition curve with a large enough effect; inconclusive = small, poorly fitted or top-dose-only effect; inactive = no such curve, though single readings can be large or run the other way. Many of the other results were omitted from the sample, so actives are more common in it than they were.
Bench note: report the call from active, inactive

Answered examples (2):
[ask] Dear colleague, could you share the recorded outcome for CCOC(=O)c1cc2c(=O)n3ccccc3nc2n(CC2CCCO2)c1=NC(=O)c1ccc(C(C)(C)C)cc1 (configuration not stated) when you have a moment?
[reply] inactive

[ask] Follow-up entry: `COc1ccc(-c2noc(CSc3nc4ccc(C)cc4[nH]3)n2)cc1`
[reply] inactive

More entries:
[ask] Just curious, what result did CSCCC(NC(=O)COc1ccccc1)C(=O)N(C)CC(=O)Nc1ccc(C)cc1 (configuration not stated) get here?
[reply] inactive

[ask] Similarly, `CCOc1cc(/C=C/c2nc3ccccc3c(=O)[nH]2)cc(Br)c1OC` ?
[reply] active

[ask] What about `Cc1ccc(CSc2nc3ccsc3c(=O)n2CCC(C)C)cc1` ?
[reply] inactive

[ask] Consider next the compound COc1cccc(N=C2SC(C(=O)Nc3cccc(Cl)c3)CC(=O)N2C)c1 (configuration not stated) in the same way.
[reply] inactive

[ask] Record: COc1ccc(C2NC(=S)NC3=C2CCc2ccccc23)cc1OC (configuration not stated)
[reply] active

[ask] Entry `COc1cc(C(=O)N2CCC(c3ccncc3)CC2)cc(OC)c1OC` please
[reply] inactive

[ask] // repeat for `CCN(Cc1ccccc1)Cc1c(O)ccc2c(=O)c(-c3ccc(Cl)cc3Cl)coc12` and report
[reply] inactive

[ask] Quick one: `O=C(O)c1cc(S(=O)(=O)N(Cc2ccccc2)c2cccc(C(F)(F)F)c2)ccc1Cl`
[reply] inactive

[ask] What do you have for `COc1cc(OC)c(OC)cc1/C=C/c1nc2ccccc2c(=O)n1-c1ccc(Br)c(C)c1` ?
[reply] inactive

[ask] And what about the compound `Cc1cc(C)c(NC(=O)Cn2c(SCC(=O)NCc3ccccc3)nc3ccccc32)c(C)c1` ?
[reply] inactive

[ask] Do the same for `O=C(Nc1ccc(Cl)cc1)N1CCc2[nH]c3ccccc3c2C1` please
[reply] inactive

[ask] Another compound to check: CCOc1ccc2[nH]c(=O)c(CN(Cc3nnnn3Cc3ccccc3)CC3CCCO3)cc2c1 (configuration not stated)
[reply] inactive

[ask] Now this one: `Cc1cccc(C(=O)Nc2ccc(-c3nc4ncccc4o3)cc2C)c1`
[reply] inactive

[ask] Another: `C=CCNC(=S)N1CCc2[nH]c3ccccc3c2C1`
[reply] inactive

[ask] Please answer likewise for `Cc1ccc2[nH]c(C)c(CCNC(=O)NC3CCCCC3)c2c1`
[reply] inactive

[ask] Try `COc1cccc(CNC(=O)c2ccc3c(Cl)c4c(nc3c2)CCCC4)c1` next.
[reply] inactive

[ask] Can you handle O=C(Nc1ccc2c(c1)OCO2)C1CC(c2c(F)cccc2Cl)=NO1 (configuration not stated) next?
[reply] active

[ask] What do you get for `O=c1oc2c(CN3CCCCC3)c(O)ccc2c2c1CCCCC2` ?
[reply] inactive
